# Target desc: FGFR2 over-expressed on CHO cells (CHO-FGFR2) and on 32D cells (32D-FGFR2) (UniProt P21803)
# Assay info: competition of unlabeled protein with 125I-FGF4 (Gly79-Leu206) for CHO-FGFR2 cells, +heparin
Measured endpoint: IC50 mutant/IC50 wild-type (ratio (IC50 mutant/IC50 wild-type))

INSERT INTO results (binder, data_value) VALUES
  ('FGF4 (Gly79-Leu206) Y87A (ligand) GIKRLRRLACNVGIGFHLQALPDGRIGGAHADTRDSLLELSPVERGVVSIFGVASRFFVAMSSKGKLYGSPFFTDECTFKEILLPNNYNAYESYKYPGMFIALGKNGKTKKGNRVSPTMKVTHFLPRL', '> 100'),
  ('FGF4 (Gly79-Leu206) H201A (ligand) GIKRLRRLYCNVGIGFHLQALPDGRIGGAHADTRDSLLELSPVERGVVSIFGVASRFFVAMSSKGKLYGSPFFTDECTFKEILLPNNYNAYESYKYPGMFIALGKNGKTKKGNRVSPTMKVTAFLPRL', '> 1000'),
  ('FGF4 (Gly79-Leu206) F129A (ligand) GIKRLRRLYCNVGIGFHLQALPDGRIGGAHADTRDSLLELSPVERGVVSIAGVASRFFVAMSSKGKLYGSPFFTDECTFKEILLPNNYNAYESYKYPGMFIALGKNGKTKKGNRVSPTMKVTHFLPRL', '> 100');

Next item in the queue.
Form field: reported IC50 mutant/IC50 wild-type (ratio (IC50 mutant/IC50 wild-type)) of FGF4 (Gly79-Leu206) Y166A (ligand) GIKRLRRLYCNVGIGFHLQALPDGRIGGAHADTRDSLLELSPVERGVVSIFGVASRFFVAMSSKGKLYGSPFFTDECTFKEILLPNNANAYESYKYPGMFIALGKNGKTKKGNRVSPTMKVTHFLPRL
> 100
